molecular target: UniProt:O88867; assay: Inhibition of rat liver KYN 3-OHase.
Response field label takes Criterion met when IC50 is strictly below 6 µM and Criterion not met in all other cases.

> print(dat)
                                   compound         class.name
1  O=C(CC(C(=O)O)c1ccccc1)c1ccc(Cl)c(Cl)c1 (stereo unspecified)  Criterion not met
2       C/C(=C\C(=O)c1ccc(Cl)c(Cl)c1)C(=O)O  Criterion not met
3         O=C(O)C(=O)/C=C(\O)c1ccc(F)c(F)c1      Criterion met
4  O=C(CC(Cl)C(=O)O)c1ccc(Cl)c(Cl)c1 (stereo unspecified)  Criterion not met
5  O=C(CC(O)C(=O)O)c1cccc(Cl)c1 (stereo unspecified)      Criterion met

We next turn to a different compound, shown below.
Task item: Below 6 µM on IC50? Entry O=C(O)C(=O)/C=C(\O)c1ccc(Cl)c(Cl)c1
Reply: Criterion not met

###

target: FMO (Mus musculus, UniProt Q64133+Q8BW75); assay: Compound was evaluated for inhibition of FMO. at 100 uM; assay type: protein assay
readout_label: inhibition at 100 µM (%)
Please reply with the bare figure in % and do not write the unit itself.

Task item: Query: inhibition at 100 µM; subject: NC(CC(=O)c1ccc(Cl)c(Cl)c1)C(=O)O (stereo unspecified)
Reply: 8.5

###

target: Kynurenine 3-monooxygenase (Rattus norvegicus, UniProt O88867); assay: Inhibition of rat brain KYN 3-OHase.
Sequence (O88867 whole entry): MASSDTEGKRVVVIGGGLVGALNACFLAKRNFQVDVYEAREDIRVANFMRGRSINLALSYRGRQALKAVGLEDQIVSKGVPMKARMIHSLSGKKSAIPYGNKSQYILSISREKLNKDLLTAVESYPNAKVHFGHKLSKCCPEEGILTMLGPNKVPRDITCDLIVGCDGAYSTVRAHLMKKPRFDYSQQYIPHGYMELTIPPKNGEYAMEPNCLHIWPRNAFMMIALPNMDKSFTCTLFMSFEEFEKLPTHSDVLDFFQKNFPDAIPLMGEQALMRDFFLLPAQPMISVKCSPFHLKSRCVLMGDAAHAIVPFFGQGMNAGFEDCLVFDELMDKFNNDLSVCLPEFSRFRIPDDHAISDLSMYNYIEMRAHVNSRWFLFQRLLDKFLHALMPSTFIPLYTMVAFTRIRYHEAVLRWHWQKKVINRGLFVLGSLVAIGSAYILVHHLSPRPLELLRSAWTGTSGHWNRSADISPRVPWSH
readout_label: pIC50
# pIC50 = -log10(concentration in molar units)

Some solved entries appear below for comparison.
> print(dat)
                                   compound  recorded.result
1       O=C(O)C(=O)/C=C(\O)c1ccc(Cl)c(Cl)c1             6.02
2       C/C(=C\C(=O)c1ccc(Cl)c(Cl)c1)C(=O)O             5.66
3  O=C(CC(Cl)C(=O)O)c1ccc(Cl)c(Cl)c1 (stereo not given)             5.66
4         O=C(O)C(=O)/C=C(\O)c1ccc(F)c(F)c1             6.36

Task item: Query: pIC50; subject: O=C(CC(O)C(=O)O)c1cccc(Cl)c1 (stereo not given)
Reply: 6.32

###

target: Kynurenine 3-monooxygenase (Rattus norvegicus); assay: Inhibition of rat liver KYN 3-OHase at 100 uM concentration
readout_label: inhibition (%)
Please reply with the bare figure in % and do not write the unit itself.

Some solved entries appear below for comparison.
> print(dat)
                                   compound                                    target  readout.label  readout.units  recorded.result
1       CC(C)(CC(=O)c1ccc(Cl)c(Cl)c1)C(=O)O  Kynurenine 3-monooxygenase (Rattus norvegicus)     inhibition              %               21
2  COc1ccc(C(=O)CC(O)C(=O)O)cc1 (stereo unspecified)  Kynurenine 3-monooxygenase (Rattus norvegicus)     inhibition              %                7
3  CC(O)(CC(=O)c1ccc(Cl)c(Cl)c1)C(=O)O (stereo unspecified)  Kynurenine 3-monooxygenase (Rattus norvegicus)     inhibition              %               43

Task item: Query: inhibition; subject: NCCC(=O)c1ccc(Cl)c(Cl)c1
Reply: 2

Task item: Query: inhibition; subject: CC(N)(CC(=O)c1ccc(Cl)c(Cl)c1)C(=O)O (stereo unspecified)
Reply: 35

Task item: Query: inhibition; subject: O=C(CC1(C(=O)O)CC1)c1ccc(Cl)c(Cl)c1
Reply: 20
